B1: WDR41 (parent)
chain: WTMQAYERNFWDPSPQLDTQQEIK

- Variants of: B1
- protocol-notes: protein stability index of a GFP-peptide fusion (GPS, HEK-293T) (PSI 1-6); higher = more stable;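 note: lentivirally expressed fusions sorted by FACS into six bins by GFP to DsRed ratio, PSI derived from sequencing read proportions per bin multiplied by bin number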
- experimental-setup: c terminus: a fixed tail appended
metric-name: protein stability index
// response body must contain only the number

Sample answers from the record:
W1Y | 3.58
S14W | 2.07
Q4H | 1.89

Look at this variant and give its reported protein stability index. R8T
2.95

And what about the variant D12E ?
2.31

And what about the variant A5V ?
2.12

And what about the variant E22K ?
2.37

And what about the variant F10S ?
3.95
